Provenance of the data: ChEMBL document CHEMBL1201862

# System: DMS-114
# ASSAY DETAILS: NCI tumour cell line growth inhibition, 48 h
Activity calls are given as the source filed them. No stated cut-off is given here; in the data, active = GI50 up to about 1.1 µM and inactive = higher.
Reported values of GI50 for individual entries
ASSAY READOUT: GI50

INSERT INTO results (molecule, result) VALUES
  ('N#C/C(=C1/Sc2c(nc[nH]c2=O)N1c1ccccc1)c1nc2ccccc2[nH]1', '> 100 µM (inactive)'),
  ('COc1cc(C=C2C(=O)OC(C)(C)OC2=O)cc(OC)c1OC', '> 100 µM (inactive)'),
  ('COc1ccc(C(=O)/C=C/c2ccc(OCC(=O)N3CCN(c4ccccc4)CC3)cc2)cc1', '> 90.6 µM (inactive)'),
  ('C=C1[C@@H]2CCC(C)(C)[C@H]1CCC(=O)[C@@H]2C(=O)OC', '> 100 µM (inactive)'),
  ('O=C(c1nc2ccc(Cl)cc2nc1O)C(O)c1ccccc1 (configuration not stated)', '56.5 µM (inactive)'),
  ('C/C=C/C1=CC(=O)C(O)C1O (configuration not stated)', '22 µM (inactive)'),
  ('CN(C)P(=O)(/C(N)=N/Nc1ccc([N+](=O)[O-])cc1)N(C)C', '61.7 µM (inactive)');

====

# Tested on: HOP-92
# ASSAY DETAILS: NCI tumour cell line growth inhibition, 48 h
Active and inactive are the calls of the source. Rule as the data show it: active = GI50 up to about 1.1 µM and inactive = higher.
Classes used: active, inactive

INSERT INTO results (molecule, test_target, class_name) VALUES
  ('CC12C=CC(=O)C=C1CCC1C3CCC(O)(C(=O)CO)C3(C)CC(O)C12F (configuration not stated)', 'HOP-92', 'inactive'),
  ('Cn1c(=O)nc2n(CCO)ccnc-2c1=O', 'HOP-92', 'inactive'),
  ('O=C1C(Cl)=C(N2CCN(CCOCCO)CC2)C(=O)c2c(O)ccc(O)c21', 'HOP-92', 'active'),
  ('CCCCOC(=O)C1C(c2ccc(Cl)cc2)NC(c2ccc(Cl)cc2)C(C(=O)OCCCC)S1(=O)=O (configuration not stated)', 'HOP-92', 'inactive'),
  ('COc1cc2c3c(c1O)-c1c(ccc(OC)c1OC)CC3N(C)CC2 (configuration not stated)', 'HOP-92', 'inactive'),
  ('COc1ccc(Cl)cc1NC(=O)O/N=C(\Cl)C(C)C', 'HOP-92', 'inactive'),
  ('CCOC(=O)C(NCc1ccc2c(c1)OCO2)(NC(=O)c1ccccc1)C(F)(F)F (configuration not stated)', 'HOP-92', 'inactive');

====

# Tested on: SN12C
# ASSAY DETAILS: NCI tumour cell line growth inhibition, 48 h
Calls of active or inactive are those of the source. Cut-off read from the data, not from the text of the source: active = GI50 up to about 1.1 µM and inactive = higher.
ASSAY READOUT: GI50

INSERT INTO assay_data (compound, test_target, result) VALUES
  ('CC(=O)CCN1CC2CN=NC2(C#N)C1 (stereo not given)', 'SN12C', '> 100 µM (inactive)'),
  ('CCCCOC(=O)C1C(c2ccc(Cl)cc2)NC(c2ccc(Cl)cc2)C(C(=O)OCCCC)S1(=O)=O (stereo not given)', 'SN12C', '> 100 µM (inactive)'),
  ('Cc1ccc(-c2cc(=O)c3cc(C)c(C)c(C(=O)O)c3o2)cc1', 'SN12C', '> 100 µM (inactive)'),
  ('N#CCCN(CCC#N)c1ccc(/C=C2\N=C(c3ccccc3)N(NC(=O)c3ccncc3)C2=O)cc1', 'SN12C', '> 100 µM (inactive)'),
  ('N=C1NC2(O)C(=O)c3ccccc3C2(O)N1 (stereo not given)', 'SN12C', '> 100 µM (inactive)');

====

# Test system: RPMI-8226
# ASSAY DETAILS: NCI tumour cell line growth inhibition, 48 h
Calls of active or inactive are those of the source. Rule as the data show it: active = GI50 up to about 1.1 µM and inactive = higher.
Classes used: active, inactive

INSERT INTO results (compound, class_name) VALUES
  ('Cn1cc(NC(=O)[C@H]2CCC(N)=N2)cc1C(=O)NCCC(=N)N', 'inactive'),
  ('C=CCC(O)c1cc(OC)ccc1OC (stereo not given)', 'inactive'),
  ('C#CCOC(=O)C(N)CC(N)=O (stereo not given)', 'inactive'),
  ('COc1ccc(/C=C2\CCC(C)(CN(C)C)C2=O)cc1 (stereo not given)', 'inactive'),
  ('c1cncc(C2c3[nH]c4ccccc4c3CCN2CCN2CCCCC2)c1 (stereo not given)', 'inactive'),
  ('COc1cc2c(cc1OCCCCCN1C(=O)c3cccc4cccc(c34)C1=O)N=C[C@@H]1CCCN1C2=O', 'active'),
  ('COc1ccc(/N=C(\C)c2ccncc2)cc1', 'inactive'),
  ('Cc1c(O)c(=O)ccn1CCc1c[nH]c2ccccc12', 'inactive'),
  ('COc1ccc(/C(C)=N/NC(=O)c2ccncc2)c(OC)c1', 'inactive'),
  ('C/C(CC(=O)Nc1ccc(C)cc1C)=N/N=C(N)N', 'inactive'),
  ('Cc1ccc(-c2cc(=O)c3cc(C)c(C)c(C(=O)O)c3o2)cc1', 'inactive'),
  ('COc1ccc2c(c1OC)C(Br)CCC(Br)(Br)C2=O (stereo not given)', 'inactive'),
  ('COC(=O)CCCc1ccc2c(c1)CC1(C2)Cc2cc3c(cc2C1)CCCC3', 'inactive'),
  ('COc1ccc(N2C(=O)CC(c3c[nH]c4ncccc34)C2=O)cc1 (stereo not given)', 'inactive'),
  ('CCOC(C)C(/C=N/NC(N)=S)=NNC(N)=S (stereo not given) [GLOXAZONE]', 'active'),
  ('C[C@@](Br)(C(=O)O)[C@H](Br)C(=O)O', 'inactive'),
  ('c1ccc(CN2CCCCC(Sc3ccccc3)CC2)cc1 (stereo not given)', 'inactive'),
  ('O=C1c2ccccc2-c2c1c1ccccc1c(=O)n2-c1cccnc1', 'inactive'),
  ('N#C[BH2-][n+]1cn(C2CC(O)C(COP(=O)(O)OC3CC(n4c[n+]([BH2-]C#N)c5c(=O)[nH]c(N)nc54)OC3CO)O2)c2nc(N)[nH]c(=O)c21 (stereo not given)', 'inactive'),
  ('O=C(NC1C=CCC2C(=O)N(c3ccccc3)C(=O)C12)OCc1ccccc1 (stereo not given)', 'inactive'),
  ('COc1cc2c(c(OC)c1OC)-c1ccc(SC)c(=O)cc1[C@@H](NCc1ccc([N+](=O)[O-])cc1)CC2', 'active'),
  ('COc1cc(/C=C2\C(=O)N(c3cccc(NC(C)=O)c3)C(c3ccccc3)S2(=O)=O)cc(OC)c1OC (stereo not given)', 'inactive'),
  ('CN(C)CCC(O)(c1ccccc1)C(O)(CCN(C)C)c1ccccc1 (stereo not given)', 'inactive'),
  ('NCCCOc1ccc([N+](=O)[O-])cc1Cl', 'inactive'),
  ('c1ccc2c(c1)CCc1cc3cc4c(nc3nc1-2)-c1ccccc1CC4', 'inactive'),
  ('CSc1n[nH]c2[nH]nc(C)c12', 'inactive'),
  ('N#CC(c1cc(Cl)ncn1)c1nc2cc(C(F)(F)F)ccc2s1 (stereo not given)', 'inactive'),
  ('CCOC(=O)C(O)(C(=O)OCC)c1cc(C(C)(C)C)c(O)c(C(C)(C)C)c1', 'inactive'),
  ('CCC(=O)CC(=O)CCC(=O)Nc1cc(C)ccc1C', 'inactive'),
  ('CC(C)=CCC[C@@H](C)[C@H]1CC[C@@]2(C)[C@@H]3CC[C@H]4C(C)(C)[C@@H](O)CC[C@@]45C[C@@]35CC[C@]12C [CYCLOARTENOL]', 'inactive'),
  ('CCN(CC)C(=O)Cn1c(C)cc2ccccc21', 'inactive'),
  ('COc1ccc(/C=C2\C[C@H]3[C@@H]4CCC5=C/C(=N/O)CC[C@]5(C)[C@H]4CC[C@]3(C)\C2=N\O)cc1', 'inactive'),
  ('CN1CCN(Cn2nc(-c3ccccc3)n(/N=C/c3ccc(-c4ccc(Cl)cc4Cl)o3)c2=S)CC1', 'inactive'),
  ('Cc1nc2c(sc3nc4ccccc4n32)c(=O)[nH]1', 'inactive'),
  ('C/C=C1/CN2CCC34c5ccccc5N(C)C23C2CC1C4(C(=O)OC)C(OC(C)=O)O2 (stereo not given)', 'inactive'),
  ('COc1cc(C=C2C(=O)OC(C)(C)OC2=O)cc(OC)c1OC', 'inactive'),
  ('O=C(N/N=C/c1ccccc1)c1c(F)c(F)c(F)c(F)c1F', 'inactive'),
  ('COc1cc2c([C@@H](OC(=O)c3ccccc3)c3ccc4c(c3)OCO4)nccc2c(OC)c1OC', 'inactive'),
  ('CC1=C(CO)C(=O)O[C@@H]([C@@H](C)[C@H]2CC[C@H]3[C@@H]4C[C@@H](O)[C@@]5(O)CC=CC(=O)[C@]5(C)[C@H]4CC[C@]23C)C1 [JABOROSALACTONE D]', 'inactive'),
  ('C=C1[C@@H]2CCC(C)(C)[C@H]1CCC(=O)[C@@H]2C(=O)OC', 'inactive');
